Origin of values: ChEMBL document CHEMBL4411324

- target_system: Receptor-type tyrosine-protein kinase FLT3 (Homo sapiens, UniProt P36888, ITD)
- Sequence (P36888 whole entry, looked up, stated change not applied, the tested form may be a part): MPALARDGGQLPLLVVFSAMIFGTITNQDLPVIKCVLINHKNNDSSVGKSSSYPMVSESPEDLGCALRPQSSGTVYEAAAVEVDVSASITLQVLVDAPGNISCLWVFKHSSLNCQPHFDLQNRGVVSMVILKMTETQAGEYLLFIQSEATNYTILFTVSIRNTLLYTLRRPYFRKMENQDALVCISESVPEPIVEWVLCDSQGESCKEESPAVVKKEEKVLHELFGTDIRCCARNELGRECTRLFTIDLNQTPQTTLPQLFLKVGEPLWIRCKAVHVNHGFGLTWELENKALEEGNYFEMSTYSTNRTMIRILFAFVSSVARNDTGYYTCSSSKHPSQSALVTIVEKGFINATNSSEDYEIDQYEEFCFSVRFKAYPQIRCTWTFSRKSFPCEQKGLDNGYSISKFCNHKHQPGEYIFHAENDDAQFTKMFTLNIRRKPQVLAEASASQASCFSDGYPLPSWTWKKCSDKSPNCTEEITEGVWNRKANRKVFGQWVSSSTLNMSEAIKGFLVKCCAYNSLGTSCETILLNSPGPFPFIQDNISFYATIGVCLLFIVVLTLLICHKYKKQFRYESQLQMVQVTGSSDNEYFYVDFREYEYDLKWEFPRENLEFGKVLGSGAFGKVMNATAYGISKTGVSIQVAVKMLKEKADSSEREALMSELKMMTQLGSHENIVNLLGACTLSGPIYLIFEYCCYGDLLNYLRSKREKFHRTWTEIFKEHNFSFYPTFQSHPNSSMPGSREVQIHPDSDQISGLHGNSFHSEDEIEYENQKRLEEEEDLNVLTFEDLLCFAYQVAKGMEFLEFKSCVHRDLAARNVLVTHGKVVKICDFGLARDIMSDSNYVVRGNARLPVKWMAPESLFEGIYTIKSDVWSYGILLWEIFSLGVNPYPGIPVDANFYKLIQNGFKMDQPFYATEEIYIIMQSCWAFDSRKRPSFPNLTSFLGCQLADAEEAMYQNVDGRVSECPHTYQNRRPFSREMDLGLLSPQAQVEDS
- assay_comment: Inhibition of recombinant human N-terminal GST/His6-fused FLT3 ITD mutant (R571 to S993 residues) expressed in Sf9 insect cells assessed as residual activity using ULightTM-TK peptide as substrate incubated for 90 mins under dark condition by FRET assay
quantity_kind: IC50

Query: Report IC50, nothing else, for this molecule: O=C(NCCNC/C=C/c1ccc(-c2cccnc2)cc1)c1cccc2cnccc12
Result: > 10000 nM

Query: Return IC50 for the following molecule: CNC(=O)c1ncccc1-c1ccc(CCC(=O)NCCNS(=O)(=O)c2cccc3cnccc23)cc1
Result: > 10000 nM

Query: Retrieve IC50 measured for O=C(CCc1ccc(-c2cccnc2)cc1)NCCNS(=O)(=O)c1cccc2cnccc12 and print it.
Result: 32.4 nM

Query: Specify measured IC50 for Nc1cc2c(S(=O)(=O)NCCNC/C=C/c3ccc(-c4cccnc4)cc3)cccc2cn1 .
Result: 19.5 nM

Query: For the molecule Cc1ccc(S(=O)(=O)NCCNC(=O)CCc2ccc(-c3cnc4[nH]ccc4c3)cc2)cc1 , give its measured IC50 value.
Result: 2.14 nM

Query: Return IC50 for the following molecule: CNC(=O)c1ccc(-c2ccc(CCC(=O)NCCNS(=O)(=O)c3cccc4cnccc34)cc2)cn1
Result: > 10000 nM

Query: Specify reported IC50 for the molecule shown: O=S(=O)(NCCNCc1ccc2cc(-c3cccnc3)ccc2c1)c1cccc2cnccc12
Result: 562 nM

Query: Retrieve IC50 measured for Nc1ccc(-c2ccc(CCC(=O)NCCNS(=O)(=O)c3cccc4cnccc34)cc2)cn1 and print it.
Result: 23.4 nM

Query: Supply reported IC50 belonging to this molecule: O=C(CCc1ccc(-c2cnc3[nH]ccc3c2)cc1)NCCNS(=O)(=O)c1ccc(Cl)c(Cl)c1
Result: 4.07 nM

Query: Look up IC50 of O=C(CCc1ccc(-c2cnc3[nH]ccc3c2)cc1)NCCNS(=O)(=O)c1cccc(C(F)(F)F)c1 and report it.
Result: 4.27 nM

Query: Look up IC50 of CNC(=O)c1ccc(S(=O)(=O)NCCNC/C=C/c2ccc(-c3cccnc3)cc2)cn1 and report it.
Result: 13.8 nM

Query: Given the molecule O=S(=O)(NCCNCCCc1ccc(-c2cnc3[nH]ccc3c2)cc1)c1ccc(Cl)cc1 , write its reported IC50.
Result: 4.37 nM

Query: Look up and report measured IC50 for this entry: O=C1NCc2ccc(S(=O)(=O)NCCNC/C=C/c3ccc(-c4cccnc4)cc3)cc21
Result: 47.9 nM

Query: Specify measured IC50 for O=S(=O)(NCCOC/C=C/c1ccc(-c2cccnc2)cc1)c1cccc2cnccc12 .
Result: 8.32 nM

Query: Give IC50 for the following molecule: O=S(=O)(NCCNC/C=C/c1ccc(-c2cccnc2)cc1)c1ccc2[nH]ncc2c1
Result: 9.77 nM

Query: Hello, please tell me recorded IC50 for this one: O=S(=O)(NCCCCCCc1ccc(-c2cccnc2)cc1)c1cccc2cnccc12
Result: 170 nM

Query: Please give the documented IC50 of O=S(=O)(NCCNC/C=C/c1ccc(-c2ccc3ccccc3c2)cc1)c1cccc2cnccc12
Result: > 10000 nM

Query: Fill in IC50 for record O=C(CCc1ccc(-c2cnc3[nH]ccc3c2)cc1)NCCNS(=O)(=O)c1cccc(Cl)c1
Result: 1.91 nM
